# System: NCI/ADR-RES ovarian
# test.name: NCI-60 one-dose screen, 48 h (100 = growth as untreated, 0 = no growth, -100 = all killed)
# experimental.context: 10 µM unless noted
This is part of a sample that, as a whole, favours compounds with a hit. Of some 83,000 tested, about 20% had one in any assay.
measured.endpoint: growth (%)
One number for each entry, in %.

See these solved cases before continuing.
COc1cc(N)c2nccc(C)c2c1OC ... 131
C/C=C/C/C=C/[C@H](C)C[C@H](O)[C@@H]1C[C@@H]2O[C@H]2/C=C/[C@H](O)[C@@H](O)/C=C/C[C@H](C)CC(=O)O1 ... 71.6
CC(=O)/C(=C\c1c(-c2ccccc2)[nH]c2ccccc12)S(=O)(=O)c1ccccc1 ... -5.66

Provide each entry's growth from the list below.
1. CCCCN(CCCC)CC(O)CN(CC)CC (configuration not stated)
2. COC1=C(OC)C(=O)c2ccccc2C1=O
3. CCCCCc1ccnc(CC(=O)c2ccc(OC)cc2)c1

1. 105
2. 94.3
3. 108

Provide each entry's growth from the list below.
1. OC(c1ccccc1)(c1ccccc1)C(F)(F)F
2. Cc1c(CN(C)C)cc(C(C)C)cc1C(C)C
3. CCOP1(=O)CC(C)=C(Cl)C(P(=O)(O)O)C1 (configuration not stated)
4. Cc1cc2cn3c4ccc(O)cc4[nH]c(=O)c3c2cc1C
5. CC[C@H](Nc1ncnc2nc[nH]c12)c1nc2cccc(NCc3ccc(C(=O)NO)o3)c2c(=O)n1-c1ccccc1
6. CC(=O)N1CCN(CCNC(=O)n2cc(-c3ccncc3)c(-c3ccc(O)c(Cl)c3)n2)CC1
7. Cc1cc2cn3c4ccc(O)cc4nc(N)c3c2cc1C
8. O=C(CCl)NC1c2ccccc2Oc2ccccc21

106
104
96.1
3.46
101
107
9.17
101

----------
# Tested on: LOX IMVI melanoma
# test.name: NCI-60 one-dose screen, 48 h (100 = growth as untreated, 0 = no growth, -100 = all killed)
# experimental.context: 10 µM unless noted
Compounds without any hit were thinned out: in the full panel of roughly 83,000, 20% have a hit.
One threshold, 90%, splits the recorded growth values: lower ones are 1, equal or higher ones are -1.

Examples with answers:
N=C(N)c1ccc(-c2ccc(-c3ccc(F)cc3)s2)cc1 ... 1
CCC(C)(CC)c1ccc(O)c(C)c1 ... -1
CC(O)CCC(C)[N+](=O)[O-] (configuration not stated) ... -1
COc1cc(-c2nn(-c3ccc(NC(=O)c4cc(Cl)cc(Cl)c4)cc3)cc2-c2ccncc2)ccc1Cl ... 1
COc1cc(-c2nn(-c3ccc(NC(=O)Nc4ccc(Cl)c(C(F)(F)F)c4)cc3)cc2-c2ccncc2)ccc1Cl ... 1
COc1cc(N2C(=O)C=CC2=O)ccc1N1C(=O)C=CC1=O ... -1
COc1ccc(Cn2cc3c(c2-c2ccccc2)CCc2cnoc2-3)cc1OC ... 1
COc1ccc(-c2nc(N)n(C(=S)Nc3ccccc3)n2)cc1 ... -1
O=C(Nc1ccc(-n2cc(-c3ccncc3)c(-c3ccc(Cl)c(O)c3)n2)cc1)c1cc(Cl)cc(Cl)c1 ... 1
CC(C)(C)c1ccc([I+]c2ccc(C(C)(C)C)cc2)cc1 ... 1

is_below(growth, 90%) for Nc1nc(-c2cccc(Br)c2)cc(-c2cc3ccccc3oc2=O)n1 ? -1

is_below(growth, 90%) for CC([C@H]1CCC2C3CCC4C[C@@H](N)CC[C@]4(C)C3CC[C@@]21C)N(C)C (some centres not stated) ? 1

----------
Assignment: determine reported growth for the given molecules.
# Tested on: KM12 colon
# test.name: NCI-60 one-dose screen, 48 h (100 = growth as untreated, 0 = no growth, -100 = all killed)
# experimental.context: 10 µM unless noted
The panel holds about 83,000 compounds, 20% with a hit somewhere; the sample as a whole holds those more often. The source made the active and inactive calls. How the source made its calls: active means growth percent below 10; inactive means the rest.

Provide each entry's growth from the list below.
1. CC(O)c1cc[cH-]c1.[Fe+2].c1cc[cH-]c1 (stereo not given)
2. COc1cc([C@@H]2c3cc4c(cc3[C@H](O)[C@H]3COC[C@@H]23)OCO4)cc(OC)c1OC
3. NNC(=S)N1N=C(c2cc3ccccc3o2)CC1c1c[nH]c2ccccc12 (stereo not given)
4. CCCCCCNC(=O)Oc1ccc(/C(=C(/C)Cc2ccc(OC)cc2)c2ccc(OCCN(C)C)cc2)cc1

["103% (inactive)", "49.5% (inactive)", "37.4% (inactive)", "56.3% (inactive)"]

Provide each entry's growth from the list below.
1. CC(=O)/C(=C/c1ccc(-c2ccccc2)cc1)C(=O)c1ccccc1
2. O=C(Oc1ccccc1)c1ccccc1Cl
3. O=C1/C(=C\c2cn(-c3nc(N4CCOCC4)nc(N4CCOCC4)n3)c3ccccc23)c2ccccc2N1c1c(Cl)cccc1Cl
4. CC(C)CSc1nc(-c2ccc(F)cc2)c(C#N)c(N2CCCCC2)n1
5. COc1cccc(-c2cc(-c3cc4ccccc4oc3=O)nc(N)n2)c1

["80.5% (inactive)", "98.9% (inactive)", "88.5% (inactive)", "86.1% (inactive)", "95.4% (inactive)"]

Provide each entry's growth from the list below.
1. CC(=O)NCCN
2. Cc1c([C@H](C(Cl)Cl)[C@H](O)[C@H]2C[C@H](C)C(=O)O2)ccc2c1C(=O)[C@H]1[C@H]2C[C@@H](Br)[C@@]23O[C@@H](CO[C@H]2O)CC13C (stereo not given in full)
3. Nc1nc2c(c3ncncc13)C(c1cccc(C(F)(F)F)c1)Cc1ncncc1-2 (stereo not given)

["113% (inactive)", "2.99% (active)", "28.9% (inactive)"]

Provide each entry's growth from the list below.
1. NC(=O)CC(NC(=O)COc1ccc(Cl)cc1Cl)C(=O)O (stereo not given)
2. CN(CCC#N)c1ccc(/C=C(\C#N)c2cccc(C(F)(F)F)c2)cc1
3. COc1cc(-c2cc3cnccc3c3nc(N)c4ccncc4c23)cc(OC)c1OC

1: 104% (inactive); 2: 38.5% (inactive); 3: 48.1% (inactive)

----------
# Test system: RXF 393 renal
# test.name: NCI-60 one-dose screen, 48 h
# experimental.context: 10 µM unless noted
# Procedure: Cells are grown in 96 well plates and exposed to the test compound for 48 hours. Compounds are tested at a single concentration, which is 10^-5 M for most compounds. The reported endpoint is percent growth (GI% or GIPRCNT), where numbers from 0 - 100% represent growth inhibition, and numbers from -100% - 0 represent cell death. For example, a value of 40 represents 60% growth inhibition. A value of 0 means no net growth occurred over the course of the experiment. […]
About 83,000 compounds went through this panel and 20% of them were active in at least one assay; those are over-represented in the sample as a whole. Calls of active or inactive are those of the source. How the source made its calls: active means growth percent below 10; inactive means the rest.
I would appreciate it if you answered using one of these outcomes: active, inactive

Examples with answers:
CC(=O)/C(=C\c1c(-c2ccccc2)[nH]c2ccccc12)S(=O)(=O)c1ccccc1 ... active
Cc1ccc(C(=O)Nc2ccc(CN3CCN(C)CC3)c(C(F)(F)F)c2)cc1C#Cc1cnc(N)c2ccc(C#N)cc12 ... inactive
C=CCNC(=S)NNc1ccc([N+](=O)[O-])cn1 ... inactive

Now for a further molecule.
Identify the outcome logged in this assay for the molecule shown: NC(N)=N/N=C/c1cccc(Br)c1 inactive

----------
Assignment: determine reported growth for the given compounds.
# Tested on: MCF7 breast
# test.name: NCI-60 one-dose screen, 48 h (100 = growth as untreated, 0 = no growth, -100 = all killed)
# experimental.context: 10 µM unless noted
About 83,000 compounds went through this panel and 20% of them were active in at least one assay; those are over-represented in the sample as a whole. The source made the active and inactive calls. The calls were made as follows: active = growth percent below 10; inactive = the rest.

See these solved cases before continuing.
COC(=O)c1ccc2[nH]c(O)c(C(=Nc3ccc(N(C)C(=O)CN4CCN(C)CC4)cc3)c3ccc(CCO)cc3)c2c1 ... 26.3% (inactive)
CC(C)(C)OC(=O)N1C/C(=C\c2ccccc2)C(=O)/C(=C/c2ccccc2)C1 ... 78.1% (inactive)
CNCCCNCCCCNCCCN1C(=O)c2ccc3c4c(ccc(c24)C1=O)C(=O)N(CCCNCc1ccccc1OC)C3=O ... 7.86% (active)
COC(=O)c1ccc2[nH]c(O)c(C(=Nc3ccc(N(C)C(=O)CN4CCN(C)CC4)cc3)c3ccc([N+](=O)[O-])cc3)c2c1 ... 30.6% (inactive)

Provide each entry's growth from the list below.
1. Cc1nc2c(nnn2-c2ccccc2)c2nc(-c3ccc(Cl)cc3)oc(=O)c12
2. COc1cc([C@@H]2c3cc4c(cc3[C@H](O)[C@H]3COC[C@@H]23)OCO4)cc(OC)c1OC
3. CCN(CC)CCCC(C)Nc1c(C)cnc2cc(Cl)c(C)cc12 (stereo unspecified)
4. COc1ccc2c(N)ncc(C#Cc3cc(C(=O)Nc4ccc(CN5CCN(C)CC5)c(C(F)(F)F)c4)cnc3C)c2c1
5. CC(=O)Oc1cc2ccccc2cc1C(C)C
6. Cc1c(O)c(N=Nc2ccc(C(=O)O)c(O)c2)c2ccccc2c1O

95.2% (inactive)
30.9% (inactive)
85.6% (inactive)
-49.2% (active)
98% (inactive)
101% (inactive)

Hey, just so you know, these numbers are from PubChem BioAssay (NCI).
